# Protocol notes: amyloid nucleation score (Sup35N fusion, yeast selection) (log enrichment); library NNK3; higher = more nucleation; inactive = no reads after selection;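 also: zero at mode of non-aggregating sequences after 7 days selection at 30°C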
Recorded metric: amyloid nucleation score

// worked examples, amyloid nucleation score included
{"Substance": "YTPRFMISSWVLRDFIHGVS", "Recorded result": "inactive"}
{"Substance": "SSLTSNCPRKALKREVVRHW", "Recorded result": "inactive"}
{"Substance": "FSGRYGTRLPLYSGRFKWFI", "Recorded result": "inactive"}
{"Substance": "FVSGDSNTIIQPMAYNMDSK", "Recorded result": -0.282}
{"Substance": "QRLIRMSFSMAHMTSNFVMV", "Recorded result": "inactive"}
{"Substance": "VSVRVDLILKVVRRSSVWFT", "Recorded result": "inactive"}

Kindly note the recorded amyloid nucleation score for EGRSNNLCSSSSLWQVHAAL , which is inactive

Entry LFMEDVLRFGLLYLI — recorded amyloid nucleation score = inactive

Given item RRGVRPNATMSA , the value recorded as its amyloid nucleation score is inactive

* * *

# Protocol notes: amyloid nucleation score (Sup35N fusion, yeast selection) (log enrichment); library NNK1; higher = more nucleation; inactive = no reads after selection
Answer each item with its documented amyloid nucleation score.
Could you respond with only the numeric value?

Note to self: amyloid nucleation score recorded for RCRIWEEIGPIGKGERSRGC was 0.405

Value of amyloid nucleation score reported for the substance NFYTFFQTRGFLSLSACALR is -1.12

Looking up VLESIQGCYFLGASWIAEFR , I found its amyloid nucleation score recorded as 0.409

The substance listed as YLVTGVGYGGCNIRLWE shows amyloid nucleation score equal to 0.355

Measured amyloid nucleation score of FPRHYCTYWG : -0.157

// recorded amyloid nucleation score for GGFFICQGDTRVV : 0.222

Looking up LWSVVYIVIYHLMSNADWST , I found its amyloid nucleation score recorded as -0.252

// recorded amyloid nucleation score for SIQCKKFGGIWCTDTRSIGP : 1.33

Form: substance = DDVGSTRYTTMGEACQGRPA ; amyloid nucleation score = -1.13

amyloid nucleation score reading for TGYWKSFSSAF : 0.072

For record DQYIGGFGFNYETFVTRNLV the listed amyloid nucleation score is -0.861

Looking up LGCLYIA , I see its amyloid nucleation score listed as -0.711

// recorded amyloid nucleation score for VDKKRAISCKSFRLYGRFSL : -0.647

The reported value for GQHMASNLERMV in terms of amyloid nucleation score is 3.34

Per the records, this substance ( GENPGQDYASGFLNVFKNYL ) has amyloid nucleation score equal to 1.01

The recorded amyloid nucleation score for entry ARGYPLTYKYQVSRGSRLTL equals 0.439

Lab book: amyloid nucleation score of GLSGPRRQMSYMGWQRVRF noted as -0.247

Form field amyloid nucleation score, entry PYKGIVMFVSGPP : -0.068

Record VCKMSTLVDDWRGSARPHRL . Reported amyloid nucleation score: 0.782

Kindly note the recorded amyloid nucleation score for FICECCISLMIARHRALKPA , which is -1

Record summary for NSRNVCFWYVNCCLVHGILG : reported amyloid nucleation score = 7.54

amyloid nucleation score reported for this substance VTMLRSFMHELHSGLKKDLK : 2.06

The substance identified as SWNNNAFAGMIPSNVVCCTY registered its amyloid nucleation score at 1.97

Notebook: FTRWLSFKTYG , amyloid nucleation score read as -0.283

Summary for this substance, TWSSGRETSCVLFWVQVSKL : amyloid nucleation score is -0.101

Sure, the documented amyloid nucleation score for IRMFSTLLACNLVIGGCLAN is 6.48

// YSLNFYAMPRSSI : amyloid nucleation score value = 3.76

Noted for CVSIQDHFRGYKALDPAWFV : its amyloid nucleation score reads 0.805

Consider AKLWQY . Its measured amyloid nucleation score is -0.185

Reported amyloid nucleation score of KSGLRTLFSGVGHCWDALVY : 0.198

GET /value?item= LFDVYN &field=amyloid nucleation score returns -0.549

// recorded amyloid nucleation score for NFTIDKRNAMLCVGRLYRSF : 1.05

The substance CLIYYVYSRWIIPMYITGRR showed amyloid nucleation score equal to -0.27

Lab note: SITVVSNEFNVVNVILCGCY gave amyloid nucleation score of 7.01

WVGFGDVKSVTVMLYAPAWT has a reported amyloid nucleation score of 5.04

Just so you know, measured amyloid nucleation score for WHSIADLNLVDYEICVNFFY came out at -0.75

The reported value for YRVHVCQEWMGSWCCGCVKG in terms of amyloid nucleation score is 2.54
